# tested.target: HLA-B4601 (Homo sapiens, UniProt P01889, A329T/A93R/C349S/D201E/E100V/E187L/E204Q/E69M/E70A/I90K/K202T/N87E/R155S/R180W/S121R/S35A/S48A/V306I/V36M/Y140S)
# run.description: Competitive peptide binding assay, CIR-B4601
# assay.conditions: read-out: Inhibition % of Cy5-reference peptide binding, CIR-B4601, 5μM peptide
Peptide text beside a SMILES is read from it.
measurement.type: inhibition at 5 µM (%)
Please give a number only; it is taken to be in %.

Recorded inhibition at 5 µM (molecule CSCC[C@H](NC(=O)[C@H](CCCCN)NC(=O)CN)C(=O)N[C@@H](CCCCN)C(=O)N[C@@H](CC(=O)O)C(=O)N[C@@H](CC(C)C)C(=O)N[C@@H](CO)C(=O)N1CCC[C@H]1C(=O)N[C@@H](CCCNC(=N)N)C(=O)N[C@@H](Cc1c[nH]c2ccccc12)C(=O)O [Epitope Y224] (H-GKMKDLSPRW-OH; N-terminus and C-terminus assumed) ): 32.3

---

# tested.target: HLA-C0302 (Homo sapiens, UniProt P10321, A176E/A330V/A97T/C25G/C350S/D114A/D33Y/E197K/L127V/L171W/L218V/M285V/M309V/M331V/P208H/Q277E/Q291P/R243W/R45H/S123Y/S297R/S48A/T118I/T187L/T329A/T363A/V319A)
# run.description: Competitive peptide binding assay, CIR-C0302
# assay.conditions: HMy2.CIR-C0302 cells, reference Cy5-[…], class from inhibition at 5 and 15 μM, flow cytometry MFI; read-out: Binding affinity with HLA-C0302
pIC50: −log10 of the molar value. Peptide text beside a SMILES is read from it.
Please respond with reported pIC50 for every item in the list.

Measured pIC50, CC(C)C[C@H](NC(=O)[C@@H](NC(=O)[C@H](CCCNC(=N)N)NC(=O)[C@H](CO)NC(=O)[C@@H](NC(=O)[C@H](C)NC(=O)[C@@H](N)C(C)C)[C@@H](C)O)[C@@H](C)O)C(=O)N[C@@H](CO)C(=O)N[C@@H](Cc1ccc(O)cc1)C(=O)O [Epitope M72] (H-VATSRTLSY-OH; N-terminus and C-terminus assumed) : < 4.82

Record C[C@H](NC(=O)[C@H](CO)NC(=O)[C@H](C)NC(=O)[C@H](CO)NC(=O)[C@@H]1CCCN1C(=O)[C@H](C)NC(=O)[C@@H](N)Cc1ccccc1)C(=O)N[C@@H](Cc1ccccc1)C(=O)N[C@@H](Cc1ccccc1)C(=O)O [Epitope M16] (H-FAPSASAFF-OH; N-terminus and C-terminus assumed) . Reported pIC50: > 5.30

Lab note: measured pIC50 of CC[C@H](C)[C@H](NC(=O)[C@H](C)NC(=O)CNC(=O)[C@@H](NC(=O)[C@H](Cc1ccc(O)cc1)NC(=O)[C@@H](NC(=O)[C@@H](N)CC(C)C)[C@@H](C)O)[C@@H](C)O)C(=O)N[C@@H](CCCCN)C(=O)N[C@@H](CC(C)C)C(=O)O [Epitope M15] (H-LTYTGAIKL-OH; N-terminus and C-terminus assumed) was < 4.82

Entry C[C@H](NC(=O)[C@H](CO)NC(=O)[C@H](CO)NC(=O)[C@@H](N)Cc1ccc(O)cc1)C(=O)N[C@@H](CC(N)=O)C(=O)N[C@@H](CC(N)=O)C(=O)N[C@@H](CS)C(=O)N[C@H](C(=O)N[C@@H](Cc1ccccc1)C(=O)O)[C@@H](C)O [Epitope M64] (H-YSSANNCTF-OH; N-terminus and C-terminus assumed) , pIC50 reported as 4.82 to 5.30

Recorded result, CC(C)C[C@H](NC(=O)[C@H](CC(C)C)NC(=O)[C@H](Cc1ccccc1)NC(=O)[C@@H](NC(=O)[C@@H](NC(=O)[C@H](Cc1ccccc1)NC(=O)[C@H](C)NC(=O)[C@H](CC(C)C)NC(=O)[C@@H](N)Cc1ccccc1)C(C)C)C(C)C)C(=O)O [Epitope M76] (H-FLAFVVFLL-OH; N-terminus and C-terminus assumed) , pIC50: 4.82 to 5.30

Recorded pIC50 (compound CC[C@H](C)[C@H](N)C(=O)N[C@@H](C)C(=O)N[C@@H](CCSC)C(=O)N[C@@H](C)C(=O)N[C@@H](CS)C(=O)N[C@@H](CC(C)C)C(=O)N[C@H](C(=O)NCC(=O)N[C@@H](CC(C)C)C(=O)O)C(C)C [Epitope M44] (H-IAMACLVGL-OH; N-terminus and C-terminus assumed) ): > 5.30

---

Assignment: determine reported inhibition at 5 µM for the given compounds.
# tested.target: HLA-C0102 (Homo sapiens, UniProt P10321, A176E/A330V/A35S/A97T/C350S/D114A/D33F/L171W/L180R/L218V/M285V/M309V/M331V/P208H/Q277E/Q291P/R121W/R243W/R30K/S123C/S140Y/S297R/T329A/T363A/V272M/V319A)
# run.description: Competitive peptide binding assay, CIR-C0102
# assay.conditions: read-out: Inhibition % of Cy5-reference peptide binding
Peptide text beside a SMILES is read from it.
Kindly provide the numeric value in % only, without the unit symbol.

For record CC[C@H](C)[C@H](NC(=O)[C@H](C)NC(=O)[C@H](CC(C)C)NC(=O)[C@@H](NC(=O)[C@@H](N)C(C)C)[C@@H](C)O)C(=O)N[C@@H](CC(C)C)C(=O)N[C@H](C(=O)N[C@@H](C)C(=O)N[C@@H](CC(C)C)C(=O)O)[C@@H](C)O [Epitope M3, VTLAILTAL] (H-VTLAILTAL-OH; N-terminus and C-terminus assumed) the listed inhibition at 5 µM is 69.2

Sure, the documented inhibition at 5 µM for CC[C@H](C)[C@H](NC(=O)[C@H](CC(N)=O)NC(=O)[C@H](CC(=O)O)NC(=O)[C@H](CO)NC(=O)[C@H](CO)NC(=O)[C@@H](N)CO)C(=O)N[C@@H](C)C(=O)N[C@@H](CC(C)C)C(=O)N[C@@H](CC(C)C)C(=O)O [Epitope M111] (H-SSSDNIALL-OH; N-terminus and C-terminus assumed) is 30.9

Lab book: inhibition at 5 µM of CC(C)[C@H](NC(=O)[C@@H](NC(=O)[C@H](Cc1ccccc1)NC(=O)[C@@H]1CCCN1C(=O)[C@@H](NC(=O)CNC(=O)[C@H](CC(=O)O)NC(=O)[C@@H](NC(=O)[C@@H](N)Cc1ccccc1)C(C)C)C(C)C)C(C)C)C(=O)O [Epitope M96] (H-FVDGVPFVV-OH; N-terminus and C-terminus assumed) noted as 3.72

inhibition at 5 µM for CSCC[C@H](NC(=O)[C@H](CO)NC(=O)[C@H](Cc1ccccc1)NC(=O)[C@H](Cc1c[nH]cn1)NC(=O)[C@H](CCCCN)NC(=O)[C@H](CCCNC(=N)N)NC(=O)[C@H](CC(C)C)NC(=O)[C@H](Cc1ccc(O)cc1)NC(=O)[C@H](C)NC(=O)[C@@H](N)Cc1ccc(O)cc1)C(=O)O [Epitope M26] (H-YAYLRKHFSM-OH; N-terminus and C-terminus assumed) is 8.9

# compound CC[C@H](C)[C@H](N)C(=O)N[C@@H](C)C(=O)N[C@@H](CC(N)=O)C(=O)N[C@@H](CCC(N)=O)C(=O)N[C@@H](Cc1ccccc1)C(=O)N[C@@H](CC(N)=O)C(=O)N[C@@H](CO)C(=O)N[C@@H](C)C(=O)N[C@H](C(=O)O)[C@@H](C)CC [Epitope M37] (H-IANQFNSAI-OH; N-terminus and C-terminus assumed) ; its inhibition at 5 µM = 68.9

Briefly, inhibition at 5 µM measured for C[C@H](NC(=O)[C@H](CO)NC(=O)[C@H](C)NC(=O)[C@H](CO)NC(=O)[C@@H]1CCCN1C(=O)[C@H](C)NC(=O)[C@@H](N)Cc1ccccc1)C(=O)N[C@@H](Cc1ccccc1)C(=O)N[C@@H](Cc1ccccc1)C(=O)O [Epitope M16] (H-FAPSASAFF-OH; N-terminus and C-terminus assumed) : 37

---

# tested.target: HLA-B5801 (Homo sapiens, UniProt P01889, A329T/C349S/D201E/D98Y/E176V/E187L/E204Q/E69T/G107R/I218V/I90N/K202T/L105A/L119I/N104I/N87E/Q89R/Q94S/R106L/R155S/R180L/R86G/S101N/S121R/S35A/S48A/T118I/V127L/V306I/V36M/Y140S/Y91M)
# run.description: Competitive peptide binding assay, CIR-B5801
# assay.conditions: HMy2.CIR-B5801 cells, reference Cy5-[…], class from inhibition at 5 and 15 μM, flow cytometry MFI; read-out: Binding affinity with HLA-B5801
pIC50: −log10 of the molar value. Peptide text beside a SMILES is read from it.
measurement.type: pIC50

Note to self: pIC50 recorded for CC[C@H](C)[C@H](NC(=O)[C@H](CC(C)C)NC(=O)[C@H](CCC(N)=O)NC(=O)[C@H](CCC(N)=O)NC(=O)[C@@H](NC(=O)[C@@H](NC(=O)[C@H](Cc1ccc(O)cc1)NC(=O)[C@@H](NC(=O)[C@H](CCC(N)=O)NC(=O)[C@@H](N)CC(C)C)[C@@H](C)O)C(C)C)[C@@H](C)O)C(=O)O [Epitope Y118] (H-LQTYVTQQLI-OH; N-terminus and C-terminus assumed) was < 4.82

Sample CC[C@H](C)[C@H](NC(=O)[C@H](CO)NC(=O)[C@H](CCC(N)=O)NC(=O)[C@H](CO)NC(=O)[C@H](C)NC(=O)[C@@H](N)C(C)C)C(=O)N[C@H](C(=O)N[C@@H](C)C(=O)N[C@@H](Cc1ccc(O)cc1)C(=O)O)[C@@H](C)CC [Epitope Y151] (H-VASQSIIAY-OH; N-terminus and C-terminus assumed) ; pIC50 observed: < 4.82

Looking up CC(C)[C@H](NC(=O)[C@@H](NC(=O)[C@@H](N)Cc1ccccc1)C(C)C)C(=O)N[C@@H](CO)C(=O)N[C@H](C(=O)NCC(=O)N[C@@H](Cc1ccc(O)cc1)C(=O)N[C@@H](Cc1c[nH]cn1)C(=O)N[C@@H](Cc1ccccc1)C(=O)O)[C@@H](C)O [Epitope Y167] (H-FVVSTGYHF-OH; N-terminus and C-terminus assumed) , I see its pIC50 listed as < 4.82

# credit: paper PMC12133982
